Source of measurements: paper PMC11876601

Below is a list of entries, each paired with its recorded EC50 value.
system: PaTu-8988-T; experiment: cells; parameters: ATPlite luminescence viability of PDAC cell lines, 11-dose single-agent curves, 4-parameter fit; conditions: Homo sapiens, PaTu 8988t, 72 h, read-out: EC50 [nM]
Please state the figure in nM; there is no need to write the unit.

Check out these entries, answers already filled in.
molecule: COCc1c(-c2cc3cc(C)cc(OC)c3s2)c2c(N)ncnn2c1CN1CCNC(=O)C1 [Rogaratinib]
unit annotation: nM
EC50: 3870
--
molecule: O=C1NC(=O)[C@@H](c2cn3c4c(cccc24)CCC3)[C@@H]1c1c[nH]c2ccccc12 [Tivantinib]
unit annotation: nM
EC50: 347
--
molecule: COc1cc2ncnc(Nc3ccc(F)c(Cl)c3)c2cc1NC(=O)/C=C/CN1CCCCC1 [Dacomitinib]
unit annotation: nM
EC50: 2200
--
molecule: CN1CCC(COc2cnc(-c3cccc(Cn4nc(-c5cccc(C#N)c5)ccc4=O)c3)nc2)CC1 [Tepotinib]
unit annotation: nM
EC50: 6390
--
molecule: O=C(Cc1ccc(-c2ccc(OCCN3CCOCC3)cc2)cn1)NCc1ccccc1 [Tirbanibulin]
unit annotation: nM
EC50: 33

stdin: Given the molecule C1=N/C2=N/c3ccc(OCCN4CCCC4)c(c3)COC/C=C/COCc3cccc(c3)C(=C1)N2 [Pacritinib] , write its reported EC50.
stdout: 477

stdin: Given the molecule CC1(C)CC=C(c2nc(C3CC(C)(C)OC(C)(C)C3)ccc2NC(=O)c2nc(C#N)c[nH]2)CC1 [Edicotinib] , write its reported EC50.
stdout: 2070

stdin: Given the molecule CC[C@@H]1C(=O)N(C)c2cnc(Nc3ccc(C(=O)N[C@H]4CC[C@H](N5CCN(CC6CC6)CC5)CC4)cc3OC)nc2N1C(C)C [Volasertib] , write its reported EC50.
stdout: 33.8
